Data origin, for the record: patent US8906945B2

Below, each of the compounds is paired with its reported CC50/IC50 value.
- Tested on: HeLa cells
- measurement.parameters: ratio of HeLa CC50 vs ExoS′-βLA IC50
Format: numeric value only, no unit, no commentary.

Below, each entry is followed by its recorded CC50/IC50 result.
CC50/IC50 lookup needed for CCN1CCOC(CC(=O)Nc2ccc(F)cc2)C1=O (stereo not shown) , thanks.
6.2

Next up: CCc1ccc2nc(N3C(=O)C(O)=C(C(=O)c4cccs4)C3c3ccc([N+](=O)[O-])cc3)sc2c1 (stereo not shown)
5.3

Next up: `Cc1ccc(NC(=O)/C=C/C(=O)OCC(F)(F)C(F)F)cc1`
1.3

Now for another entry.
CC50/IC50 lookup needed for NC(=O)/C=C/C(=O)Nc1ccccc1Cl [Compound 7, N1-(2-chlorophenyl)fumaramide] , thanks.
2.4

----------
- Tested on: ExoU translocation from P. aeruginosa strain PAKΔSTYexoU into CHO cells
- test.description: Inhibition of P. aeruginosa ExoU-dependent CHO cell killing (LDH release)
- measurement.parameters: ExoU-secreting P. aeruginosa, MOI 5
measure.name: rescue of CHO cells from ExoU cytotoxicity (in words)

rescue of CHO cells from ExoU cytotoxicity (in words) lookup needed for CC(Oc1ccc(Cl)cc1Cl)C(=O)NCc1ccc(F)cc1 (racemic) , thanks.
rescued CHO cells

Next up: CC(Oc1ccc(Cl)cc1Cl)C(=O)NCc1ccco1 (racemic)
rescued CHO cells

----------
- System: T3SS-mediated secretion of ExoS′-βLA fusion protein from P. aeruginosa strain MDM973
- test.description: microbe, parasite or virus in culture
- Type: cell-based, Pseudomonas aeruginosa
- measurement.parameters: Pseudomonas aeruginosa, read-out: IC50 (μM) (ExoS′-βLA assay), Table 4
measure.name: IC50 (µM)
Numeric answer only, unit µM assumed.

IC50 lookup needed for COc1ccc(CNC(=O)C(C)Oc2ccc(Cl)cc2Cl)cc1 (racemic) , thanks.
10

Next up: CC(Oc1ccc(Cl)cc1Cl)C(=O)N(C)Cc1ccccc1 (racemic)
21

Next up: Cc1cc(Cl)ccc1OC(C)C(=O)NCc1ccc2c(c1)OCO2 (racemic)
98

More entries:
IC50 lookup needed for `C[C@@H](Oc1ccc(Cl)cc1Cl)C(=O)NCc1ccc2c(c1)OCO2` , thanks.
6

Next up: CC(Oc1ccc(Cl)cc1Cl)C(=O)NCc1ccncc1 (racemic)
59

Next up: CC(Oc1ccc(Cl)cc1Cl)C(=O)NCc1ccco1 (racemic)
25

Next up: CC(Oc1ccc(Cl)cc1Cl)C(=O)NCc1ccc2c(c1)OCO2 (racemic)
10

Next up: COc1ccccc1CNC(=O)C(C)Oc1ccc(Cl)cc1Cl (racemic)
12

Next up: CC(Oc1ccccc1Cl)C(=O)NCc1ccc2c(c1)OCO2 (racemic)
23

Next up: Cc1nn(C)cc1CNC(=O)C(C)Oc1ccc(Cl)cc1Cl (racemic)
61

Next up: Cc1ccc(CNC(=O)C(C)Oc2ccc(Cl)cc2Cl)cc1 (racemic)
5

Next up: CC(Oc1ccc(Cl)cc1Cl)C(=O)NCc1ccc(F)cc1 (racemic)
9

----------
Below, each of the compounds is paired with its reported CC50 value.
- test.description: in vitro
- measurement.parameters: human, CC50 (cytotoxicity, HeLa); absence of serum

Below, each entry is followed by its recorded CC50 result.
CC50 lookup needed for CCN1CCOC(CC(=O)Nc2ccc(F)cc2)C1=O (stereo not drawn) , thanks.
≥ 100 µM

Next up: CCN1CCOC(CC(=O)Nc2ccc3c(c2)OCCO3)C1=O (stereo not drawn)
≥ 100 µM

Now for another entry.
CC50 lookup needed for Cc1ccc(N2C(=O)C3C(C2=O)C2(C)C=CC3(C)O2)c(C)c1 (stereo not drawn) , thanks.
≥ 100 µM
